- System: DMS-114
- assay comment: cells
- Assay type: functional, cell-based, Homo sapiens
- condition: Homo sapiens, DMS-114
Form field: IC50 (one value per entry).

O=C(/C=C/c1ccccc1)NC(NC(=S)Nc1cccc2cccnc12)C(Cl)(Cl)Cl (centres undefined) [SALUBRINAL] = > 16 µM

For "COC(=O)CNC(=O)C(=O)OC" , write its IC50.
> 4000 µM

For CNC(=O)c1cc(Oc2ccc(NC(=O)Nc3ccc(Cl)c(C(F)(F)F)c3)cc2)ccn1 [SORAFENIB] , write its IC50.
> 4 µM

For CN(Cc1cnc2nc(N)nc(N)c2n1)c1ccc(C(=O)N[C@@H](CCC(=O)O)C(=O)O)cc1 [METHOTREXATE] , write its IC50.
> 0.2 µM

For C=C1C(=O)O[C@@H]2C3O[C@]3(C)CC/C=C(\C)CC[C@@H]12 (some centres undefined) , write its IC50.
> 5 µM

For CCc1nc(N)nc(N)c1-c1ccc(Cl)cc1 [PYRIMETHAMINE] , write its IC50.
> 20 µM

For O=C(c1cc(Cc2n[nH]c(=O)c3ccccc23)ccc1F)N1CCN(C(=O)C2CC2)CC1 [OLAPARIB] , write its IC50.
> 5 µM

For CC1=C2C[C@H]3[C@@H](CC=C4C[C@@H](O)CC[C@@]43C)[C@@H]2CC[C@]12O[C@@H]1C[C@H](C)CN[C@H]1[C@H]2C [CYCLOPAMINE] , write its IC50.
> 16 µM

For Cc1ccc(Nc2nccc(N(C)c3ccc4c(C)n(C)nc4c3)n2)cc1S(N)(=O)=O [PAZOPANIB] , write its IC50.
> 8 µM
